Examples of compounds with documented EC50 follow.
Tested on: 8505C
Experiment: Cytotoxicity against human 8505C cells assessed as cell survival after 96 hrs by sulforhodamine B assay
Assay type: functional, cell-based

>  <COMPOUND STRING>
CC1(C)CC[C@]2(C(=O)OCc3ccccc3F)CC[C@]3(C)C(=CC[C@@H]4[C@@]5(C)CC[C@H](O)[C@@](C)(CO)[C@@H]5CC[C@]43C)[C@@H]2C1

>  <EXPERIMENTAL SYSTEM>
8505C

>  <EC50>
11.2 µM

$$$$
>  <COMPOUND STRING>
CC1(C)CC[C@]2(C(=O)OCc3ccc(F)cc3)CC[C@]3(C)C(=CC[C@@H]4[C@@]5(C)CC[C@H](O)[C@@](C)(CO)[C@@H]5CC[C@]43C)[C@@H]2C1

>  <EXPERIMENTAL SYSTEM>
8505C

>  <EC50>
6.7 µM

$$$$
>  <COMPOUND STRING>
CC1(C)CC[C@]2(C(=O)OCc3ccc(Cl)cc3)CC[C@]3(C)C(=CC[C@@H]4[C@@]5(C)CC[C@H](O)[C@@](C)(CO)[C@@H]5CC[C@]43C)[C@@H]2C1

>  <EXPERIMENTAL SYSTEM>
8505C

>  <EC50>
8.1 µM

$$$$
>  <COMPOUND STRING>
CC1(C)CC[C@]2(C(=O)On3nnc4ccccc43)CC[C@]3(C)C(=CC[C@@H]4[C@@]5(C)CC[C@H](O)[C@@](C)(CO)[C@@H]5CC[C@]43C)[C@@H]2C1

>  <EXPERIMENTAL SYSTEM>
8505C

>  <EC50>
9.5 µM

$$$$
>  <COMPOUND STRING>
CC1(C)CC[C@]2(C(=O)OCc3c(F)c(F)c(F)c(F)c3F)CC[C@]3(C)C(=CC[C@@H]4[C@@]5(C)CC[C@H](O)[C@@](C)(CO)[C@@H]5CC[C@]43C)[C@@H]2C1

>  <EXPERIMENTAL SYSTEM>
8505C

>  <EC50>
14.1 µM

$$$$
>  <COMPOUND STRING>
Cc1ccccc1COC(=O)[C@]12CCC(C)(C)C[C@H]1C1=CC[C@@H]3[C@@]4(C)CC[C@H](O)[C@@](C)(CO)[C@@H]4CC[C@@]3(C)[C@]1(C)CC2

>  <EXPERIMENTAL SYSTEM>
8505C

>  <EC50>
8.4 µM

$$$$
>  <COMPOUND STRING>
CC1(C)CC[C@]2(C(=O)OCc3c(F)cccc3F)CC[C@]3(C)C(=CC[C@@H]4[C@@]5(C)CC[C@H](O)[C@@](C)(CO)[C@@H]5CC[C@]43C)[C@@H]2C1

>  <EXPERIMENTAL SYSTEM>
8505C

>  <EC50>
8.7 µM

$$$$
>  <COMPOUND STRING>
C#CCNC(=O)[C@]12CCC(C)(C)C[C@H]1C1=CC[C@@H]3[C@@]4(C)CC[C@H](O)[C@@](C)(CO)[C@@H]4CC[C@@]3(C)[C@]1(C)CC2

>  <EXPERIMENTAL SYSTEM>
8505C

>  <EC50>
22.1 µM

$$$$
>  <COMPOUND STRING>
CC1(C)CC[C@]2(C(=O)OCCC3OCCCO3)CC[C@]3(C)C(=CC[C@@H]4[C@@]5(C)CC[C@H](O)[C@@](C)(CO)[C@@H]5CC[C@]43C)[C@@H]2C1

>  <EXPERIMENTAL SYSTEM>
8505C

>  <EC50>
13.1 µM

$$$$
>  <COMPOUND STRING>
CC1(C)CC[C@]2(C(=O)O)CC[C@]3(C)C(=CC[C@@H]4[C@@]5(C)CC[C@H](O)[C@@](C)(CO)[C@@H]5CC[C@]43C)[C@@H]2C1

>  <EXPERIMENTAL SYSTEM>
8505C

>  <EC50>
38 µM

$$$$
>  <COMPOUND STRING>
Cc1cccc(COC(=O)[C@]23CCC(C)(C)C[C@H]2C2=CC[C@@H]4[C@@]5(C)CC[C@H](O)[C@@](C)(CO)[C@@H]5CC[C@@]4(C)[C@]2(C)CC3)c1

>  <EXPERIMENTAL SYSTEM>
8505C

>  <EC50>
9.7 µM

$$$$

Values from ChEMBL document CHEMBL3632609
